Assign t1/2 to each entry below.
# Study Target: … (SEQ ID NO: 1)-HLA-A*02 complex (soluble, biotinylated) (human)
# Procedure Summary: SPR (BIAcore) or BLI (Octet) per Example 3, biotinylated pHLA immobilised, 25 C
Numbers only, in h.

Known t1/2 results, listed for orientation:
>  <Binder>
ImmTAC molecule comprising a109 (SEQ ID NO: 8) and b46 (SEQ ID NO: 11) (TCR, part only; not given: anti-CD3 scFv, linker, TCR constants, part only) TCR alpha, part: GDAKTTQPNSMESNEEEPVHLPCNHSTISGTDYIHWYRQLPSQGPEYVIHGLTSNVNNRMASLAIAEDRKSSTLILHRATLRDAAVYYCILILGHSRLGNYQATFGKGTKLSVIP TCR beta, part: DGGITQSPKYLFRKEGQNVTLSCEQNLNHDAMYWYRQDPGQGLRLIYYSQIMGDEQKGDIAEGYSVSREKKESFPLTVTSAQKNPTAFYLCASSWWTGGSAPIRFGPGTRLTVT

>  <Value Observed>
7.31

$$$$
>  <Binder>
ImmTAC molecule comprising a79 (SEQ ID NO: 7) and b73 (SEQ ID NO: 16) (TCR, part only; not given: anti-CD3 scFv, linker, TCR constants, part only) TCR alpha, part: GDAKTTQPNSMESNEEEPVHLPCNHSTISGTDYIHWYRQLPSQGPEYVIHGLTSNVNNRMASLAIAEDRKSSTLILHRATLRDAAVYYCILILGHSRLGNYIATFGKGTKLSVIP TCR beta, part: DGGITQSPKYLFRKEGQNVTLSCEQNLNHDAMYWYRQDPGQGLRLIYYSQIMGDEQKGDIAEGYSVSREKKESFPLTVTSAQKNPTAFYLCASSWWTGGAAPISFGPGTRLTVT

>  <Value Observed>
4.6

$$$$

Data request: Entry ImmTAC molecule comprising a79 (SEQ ID NO: 7) and b58 (SEQ ID NO: 21) (TCR, part only; not given: anti-CD3 scFv, linker, TCR constants, part only) TCR alpha, part: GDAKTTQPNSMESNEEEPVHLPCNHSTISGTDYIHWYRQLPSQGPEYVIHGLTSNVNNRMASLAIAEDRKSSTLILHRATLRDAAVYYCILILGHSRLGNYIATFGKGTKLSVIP TCR beta, part: DGGITQSPKYLFRKEGQNVTLSCEQNLNHDAMYWYRQDPGQGLRLIYYSQIMGDEQKGDIAEGYSVSREKKESFPLTVTSAQKNPTAFYLCASSWWTGGSSPISFGPGTRLTVT : reported t1/2 = ?
Data returned: 28.7

These entries and their values trace back to patent US20240368243A1.
